For each of the compounds below, state its pIC50.
Test system: HL-60 (human myeloid leukemia) cells
experiment: MTT cytotoxicity assay, HL-60
Assay type: cell-based
condition.summary: Homo sapiens; HL-60, MTT, 48 h; read-out: IC50 against HL-60
// pIC50 here means minus log10 of the molar concentration (mol/L)

GET /values?item= C=C(C)[C@@]12C[C@@H](C)[C@@]34OC5(CCCCCCC[C@@H](C)[C@H]6[C@H](C)[C@H](OC(=O)c7ccccc7)[C@@](O)([C@H](O)[C@@]7(CO)O[C@H]7[C@H]3[C@H]1O5)[C@@H]64)O2 [Compound 3, pimelea factor P3] &system= HL-60 (human myeloid leukemia) cells returns pIC50: 4.88

The compound C=C(C)[C@]12C[C@@H](C)[C@@]34OC5(CCCCCCC[C@@H](C)[C@H]6[C@H](C)[C@H](O)[C@@](O)([C@H](O)[C@@]7(COC(=O)/C=C/c8ccccc8)O[C@H]7[C@H]3[C@H]1O5)[C@@H]64)O2 [Compound 1, wikstroelide Q] , when measured on HL-60 (human myeloid leukemia) cells, yielded pIC50 of 4.58

###

Tested on: HL-60 (human myeloid leukemia) cells
experiment: MTT cytotoxicity assay, HL-60
Type: cell-based
condition.summary: Homo sapiens; HL-60, MTT, 48 h; read-out: IC50 against HL-60
Protocol: Compounds 1–10 were evaluated for their cytotoxic activities against five human cancer cell lines, HL-60 (human myeloid leukemia), SMMC-7721 (hepatocellular carcinoma), A549 (lung cancer), MCF-7 (breast cancer), and SW480 (colon cancer), and one human normal cell line BEAS-2B (human bronchial epithelial) by the MTT method. DDP (cis-platin) and taxol were used as positive controls. […]
measured.property: IC50 (µM)
Give just the numeric value; µM need not be written.

// assay HL-60 (human myeloid leukemia) cells, entry CC(=O)O[C@@]12C[C@@H](C)[C@@]3(O)[C@@H](C=C(CO)C[C@]4(O)C(=O)C(C)=C[C@@H]34)[C@@H]1C2(C)C [Compound 4, prostratin] , IC50 value = 15.6

###

System: SMMC-7721 (hepatocellular carcinoma) cells
experiment: MTT cytotoxicity assay, SMMC-7721
Type: cell-based, human
condition.summary: SMMC-7721, MTT, 48 h; read-out: IC50 against SMMC-7721
measured.property: IC50 (µM)
Just the number in µM, nothing appended.

Form field IC50, entry N.N.[Cl][Pt][Cl] [DDP ( cis-platin), cis-platin, reference compound] : 16.2

###

Tested on: HL-60 (human myeloid leukemia) cells
experiment: MTT cytotoxicity assay, HL-60
Assay type: cell-based
condition.summary: Homo sapiens; HL-60, MTT, 48 h; read-out: IC50 against HL-60
measured.property: IC50

Field IC50 (entry C=C(C)[C@]12C[C@@H](C)[C@@]34OC5(CCCCCCC[C@H](C)[C@H]6[C@H](C)[C@H](OC(=O)c7ccccc7)[C@@](O)([C@H](O)[C@@]7(CO)O[C@H]7[C@H]3[C@H]1O5)[C@@H]64)O2 [Compound 2, pimelea factors P2] ) reads 13.8 µM

The compound COc1cc([C@H]2OC[C@H]3[C@@H]2CO[C@H]3c2ccc(O)c(OC)c2)ccc1O [Compound 6, (+)-epipioresinol] showed IC50 equal to > 40 µM

For record O=C(c1ccc2c(c1)OCO2)[C@H]1CO[C@H](c2ccc3c(c2)OCO3)[C@H]1CO [Compound 9, (+)-epi-sesaminone] the listed IC50 is > 40 µM

Lookup result for COc1ccc(C[C@@H]2COC(=O)[C@H]2Cc2ccc(OC)c(O)c2)cc1O ; measured IC50: > 40 µM

# IC50 (compound: CCCCC/C=C/C=C/C(=O)O[C@@H]1[C@@H](C)[C@@]2(O)[C@@H](C=C(CO)C[C@]3(O)C(=O)C(C)=C[C@@H]23)[C@@H]2C(C)(C)[C@]12OC(C)=O ) is 15.8 µM

Query COc1cc(C[C@@H]2CO[C@@H](c3ccc(O)c(OC)c3)[C@@H]2CO)ccc1O [Compound 8, (−)-lariciresinol] yields IC50 of > 40 µM

Data point: COc1cc([C@H]2c3cc(O)c(OC)cc3C[C@@H](CO)[C@@H]2CO)ccc1O [Compound 7, (+)-isolariciresinol] ; IC50 = > 40 µM

Source listed as paper PMC6268896.
